Structures can show the parent of a compound that is named as a salt.
property: melting point

IN: Value lookup for melting point; key = Nc1ccn([C@@H]2CC[C@H](OC(C(=O)O)P(=O)(O)O)C2)c(=O)n1 (relative stereo) [Compound 11c]
OUT: > 250 °C

IN: Subsequent entry: Nc1ncnc2c1ncn2[C@H]1CC[C@@H](OC(C(=O)O)P(=O)(O)O)C1 (single isomer, unassigned; (+)) (as salt: ammonium) [(+)-11d]
OUT: 234 to 239 °C

IN: Subsequent entry: Cc1cn([C@H]2CC[C@@H](OC(C(=O)O)P(=O)(O)O)C2)c(=O)[nH]c1=O (single isomer, unassigned; (+)) (as salt: ammonium) [(+)-11a]
OUT: 225 to 227 °C

IN: Subsequent entry: COC(=O)C(O[C@H]1CC[C@@H](n2cc(C)c(=O)[nH]c2=O)C1)P(=O)(OC)OC (single isomer, unassigned; (+)) [(+)26a]
OUT: 129 to 130 °C

IN: Subsequent entry: O=C(O)C(OC1CCC(n2cc(F)c(=O)[nH]c2=O)C1)P(=O)(O)O (stereo not drawn) (as salt: ammonium)
OUT: 243 °C

IN: Subsequent entry: COC(=O)C(O[C@H]1CC[C@@H](n2cc(C)c(=O)[nH]c2=O)C1)P(=O)(OC)OC (relative stereo) [26a]
OUT: 130 to 133 °C

IN: Subsequent entry: Cc1cn([C@@H]2CC[C@H](OC(C(=O)O)P(=O)(O)O)C2)c(=O)[nH]c1=O (single isomer, unassigned; (-)) (as salt: ammonium) [(−)-11a]
OUT: 229 to 230 °C

IN: Subsequent entry: Nc1ncnc2c1ncn2[C@@H]1CC[C@H](OC(C(=O)O)P(=O)(O)O)C1 (single isomer, unassigned; (-)) (as salt: ammonium) [(−)-11d]
OUT: 237 to 241 °C

IN: Subsequent entry: COC(=O)C(O[C@@H]1CC[C@H](n2cc(C)c(=O)[nH]c2=O)C1)P(=O)(OC)OC (single isomer, unassigned; (-)) [(−)26a]
OUT: 133 to 135 °C

IN: Subsequent entry: Cc1cn([C@@H]2CC[C@H](OC(C(=O)O)P(=O)(O)O)C2)c(=O)[nH]c1=O (relative stereo) (as salt: ammonium) [Compound 11a]
OUT: 228 to 230 °C

IN: Subsequent entry: Nc1ccn([C@H]2CC[C@@H](OC(C(=O)O)P(=O)(O)O)C2)c(=O)n1 (single isomer, unassigned; (+)) [(+)-11c]
OUT: > 250 °C

IN: Subsequent entry: Nc1ncnc2c1ncn2[C@@H]1CC[C@H](OC(C(=O)O)P(=O)(O)O)C1 (relative stereo) (as salt: ammonium) [Compound 11d]
OUT: 236 to 240 °C

====

- system_under_test: HIV-1 reverse transcriptase (Human immunodeficiency virus type 1 group M subtype B, UniProt P04585)
- assay_summary: cell-free HIV-1 RT assay with artificial homopolymeric template/primer and [3H]dNTP
- Format: biochemical
- experimental_context: IC50, HIV-RT catalysed incorporation of [3H]dATP / polyrU.dA, substrate [3H]dATP, template/primer poly rU.oligo dA
Give measured IC50 for each item. Keep answers brief.
Just the number in µM, nothing appended.

IN: Value lookup for IC50; key = Nc1ncnc2c1ncn2[C@@H]1CC[C@H](OC(C(=O)O)P(=O)(O)O)C1 (relative stereo) [Compound 11d]
OUT: 0.274

IN: Subsequent entry: Cc1cn([C@@H]2CC[C@H](OC(C(=O)O)P(=O)(O)O)C2)c(=O)[nH]c1=O (single isomer, unassigned; (-)) [(−)-11a]
OUT: 167

====

- system_under_test: HIV-1 reverse transcriptase (Human immunodeficiency virus type 1 group M subtype B, UniProt P04585)
- assay_summary: cell-free HIV-1 RT assay with artificial homopolymeric template/primer and [3H]dNTP
- Type: biochemical
- experimental_context: substrate [3H]dATP, template/primer poly rU.oligo dA; read-out: IC50, HIV-RT catalysed incorporation of [3H]dATP / polyrU.dA (converted)
- Method: To prepare the template/primers for the RT experiments, 0.15 mM poly(U), poly(A), and poly(I) were mixed with an equal volume of 0.0375 mM oligo(dA), oligo(dT), and oligo(dC), respectively. The final concentrations of the templates in the RT reaction mixture were 0.015 mM. […] The solutions were kept on ice for 30 min, after which the acid-insoluble material was washed and analyzed for radioactivity.
Give measured IC50 for each item. Keep answers brief.
Just the number in µM, nothing appended.

IN: Value lookup for IC50; key = Nc1ccn([C@H]2CC[C@@H](OC(C(=O)O)P(=O)(O)O)C2)c(=O)n1 (single isomer, unassigned; (+)) [(+)-11c]
OUT: 54

IN: Subsequent entry: O=C(O)C(O[C@H]1CC[C@@H](n2ccc(=O)[nH]c2=O)C1)P(=O)(O)O (single isomer, unassigned; (-)) [(−)-11b]
OUT: 233

IN: Subsequent entry: Nc1ccn([C@@H]2CC[C@H](OC(C(=O)O)P(=O)(O)O)C2)c(=O)n1 (relative stereo) [Compound 11c]
OUT: 108

IN: Subsequent entry: Cc1cn([C@@H]2CC[C@H](OC(C(=O)O)P(=O)(O)O)C2)c(=O)[nH]c1=O (relative stereo) [Compound 11a]
OUT: 307

====

- system_under_test: HIV-1 reverse transcriptase (Human immunodeficiency virus type 1 group M subtype B, UniProt P04585)
- assay_summary: cell-free HIV-1 RT assay with artificial homopolymeric template/primer and [3H]dNTP
- Assay type: biochemical
- experimental_context: substrate [3H]dCTP, template/primer poly rI.oligo dC; read-out: IC50, HIV-RT catalysed incorporation of [3H]dCTP / polyrI.dC (converted)
property: IC50

IN: Value lookup for IC50; key = Nc1ncnc2c1ncn2[C@H]1CC[C@@H](OC(C(=O)O)P(=O)(O)O)C1 (single isomer, unassigned; (+)) [(+)-11d]
OUT: > 560 µM

IN: Subsequent entry: O=C(O)C(O[C@@H]1CC[C@H](n2ccc(=O)[nH]c2=O)C1)P(=O)(O)O (single isomer, unassigned; (+)) [(+)-11b]
OUT: > 598 µM

IN: Subsequent entry: Cc1cn([C@@H]2CC[C@H](OC(C(=O)O)P(=O)(O)O)C2)c(=O)[nH]c1=O (relative stereo) [Compound 11a]
OUT: > 574 µM

IN: Subsequent entry: Nc1ncnc2c1ncn2[C@@H]1CC[C@H](OC(C(=O)O)P(=O)(O)O)C1 (single isomer, unassigned; (-)) [(−)-11d]
OUT: > 560 µM

IN: Subsequent entry: Nc1ccn([C@@H]2CC[C@H](OC(C(=O)O)P(=O)(O)O)C2)c(=O)n1 (relative stereo) [Compound 11c]
OUT: 4.8 µM

IN: Subsequent entry: Nc1ccn([C@@H]2CC[C@H](OC(C(=O)O)P(=O)(O)O)C2)c(=O)n1 (single isomer, unassigned; (-)) [(−)-11c]
OUT: 4.5 µM

IN: Subsequent entry: O=C(O)C(O[C@H]1CC[C@@H](n2ccc(=O)[nH]c2=O)C1)P(=O)(O)O (single isomer, unassigned; (-)) [(−)-11b]
OUT: > 598 µM

IN: Subsequent entry: Nc1ccn([C@H]2CC[C@@H](OC(C(=O)O)P(=O)(O)O)C2)c(=O)n1 (single isomer, unassigned; (+)) [(+)-11c]
OUT: 402 µM

IN: Subsequent entry: Cc1cn([C@H]2CC[C@@H](OC(C(=O)O)P(=O)(O)O)C2)c(=O)[nH]c1=O (single isomer, unassigned; (+)) [(+)-11a]
OUT: > 574 µM

IN: Subsequent entry: O=C(O)C(O[C@H]1CC[C@@H](n2ccc(=O)[nH]c2=O)C1)P(=O)(O)O (relative stereo) [Compound 11b]
OUT: > 598 µM

====

- system_under_test: HIV-1 reverse transcriptase (Human immunodeficiency virus type 1 group M subtype B, UniProt P04585)
- assay_summary: cell-free HIV-1 RT assay with artificial homopolymeric template/primer and [3H]dNTP
- Format: biochemical
- experimental_context: IC50, HIV-RT catalysed incorporation of [3H]dCTP / polyrI.dC, substrate [3H]dCTP, template/primer poly rI.oligo dC
pIC50: −log10 of the molar value.
property: pIC50

IN: Value lookup for pIC50; key = Cc1cn([C@@H]2CC[C@H](OC(C(=O)O)P(=O)(O)O)C2)c(=O)[nH]c1=O (single isomer, unassigned; (-)) [(−)-11a]
OUT: < 3.24

IN: Subsequent entry: Nc1ncnc2c1ncn2[C@@H]1CC[C@H](OC(C(=O)O)P(=O)(O)O)C1 (relative stereo) [Compound 11d]
OUT: < 3.25

====

- system_under_test: HIV-1 reverse transcriptase (Human immunodeficiency virus type 1 group M subtype B, UniProt P04585)
- assay_summary: cell-free HIV-1 RT assay with artificial homopolymeric template/primer and [3H]dNTP
- Format: biochemical
- experimental_context: substrate [3H]dTTP, template/primer poly rA.oligo dT; read-out: IC50, HIV-RT catalysed incorporation of [3H]dTTP / polyrA.dT (converted)
property: IC50 (µM)
Just the number in µM, nothing appended.

IN: Value lookup for IC50; key = O=C(O)C(O[C@H]1CC[C@@H](n2ccc(=O)[nH]c2=O)C1)P(=O)(O)O (relative stereo) [Compound 11b]
OUT: 3.89

IN: Subsequent entry: Nc1ncnc2c1ncn2[C@H]1CC[C@@H](OC(C(=O)O)P(=O)(O)O)C1 (single isomer, unassigned; (+)) [(+)-11d]
OUT: 487

IN: Subsequent entry: Nc1ccn([C@H]2CC[C@@H](OC(C(=O)O)P(=O)(O)O)C2)c(=O)n1 (single isomer, unassigned; (+)) [(+)-11c]
OUT: 23.4

IN: Subsequent entry: O=C(O)C(O[C@@H]1CC[C@H](n2ccc(=O)[nH]c2=O)C1)P(=O)(O)O (single isomer, unassigned; (+)) [(+)-11b]
OUT: 120

IN: Subsequent entry: Cc1cn([C@@H]2CC[C@H](OC(C(=O)O)P(=O)(O)O)C2)c(=O)[nH]c1=O (relative stereo) [Compound 11a]
OUT: 0.431

IN: Subsequent entry: O=C(O)C(O[C@H]1CC[C@@H](n2ccc(=O)[nH]c2=O)C1)P(=O)(O)O (single isomer, unassigned; (-)) [(−)-11b]
OUT: 3.29

// provenance: patent US9822137B2
